Cited source for all entries: patent US6706663B2

# System: CASOB (Cassia obtusifolia)
# TEST: Preemergence herbicidal evaluation
# Type: in vivo, L.
# STATED CONDITIONS: Rate 0.0620 kg/ha; preemergence; rated 4-5 weeks after treatment
// reported CASOB preemergence herbicidal rating per item
Reply with the value as a number alone.

## Input Recorded CASOB preemergence herbicidal rating of Cc1nnc(-c2nsc3ccc(-n4c(=O)cc(C(F)(F)F)n(C)c4=O)cc23)s1 , please.
## Output 0.0

## Input Recorded CASOB preemergence herbicidal rating of COC(=O)C(C)Oc1ccsc1-c1nsc2ccc(-n3c(=O)cc(C(F)(F)F)n(C)c3=O)cc12 (stereo not drawn) , please.
## Output 0.0

## Input Recorded CASOB preemergence herbicidal rating of CN(C(=O)c1nsc2ccc(-n3c(=O)cc(C(F)(F)F)n(C)c3=O)cc12)c1ccc(Cl)cc1 , please.
## Output 0.0

---
## Input Recorded CASOB preemergence herbicidal rating of Cn1c(C(F)(F)F)cc(=O)n(-c2ccc3snc(C4OCCCS4)c3c2)c1=O (stereo not drawn) , please.
## Output 5.0

## Input Recorded CASOB preemergence herbicidal rating of Cn1ccnc1-c1nsc2ccc(-n3c(=O)cc(C(F)(F)F)n(C)c3=O)cc12 , please.
## Output 0.0

## Input Recorded CASOB preemergence herbicidal rating of Cc1cscc1-c1nsc2ccc(-n3c(=O)cc(C(F)(F)F)n(C)c3=O)cc12 , please.
## Output 1.0

###

// reported Postemergence herbicidal rating, GALAP per item
# Test system: GALAP (Galium aparine)
# TEST: Postemergence herbicidal evaluation
# Format: in vivo
# STATED CONDITIONS: rate 0.1250 kg/ha

## Input Recorded Postemergence herbicidal rating, GALAP of Cc1ccc(-c2nsc3ccc(-n4c(=O)cc(C(F)(F)F)n(C)c4=O)cc23)nc1 [Compound 42] , please.
## Output 3.0

###

# Test system: CHEAL (Chenopodium album)
# TEST: Postemergence herbicidal evaluation
# Assay type: in vivo, L.
# STATED CONDITIONS: rate 0.0620 kg/ha
QUANTITY KIND: Postemergence herbicidal rating, CHEAL
Reply with the value as a number alone.

Some compounds with known Postemergence herbicidal rating, CHEAL results, for comparison:
## Input Recorded Postemergence herbicidal rating, CHEAL of Cc1ccsc1-c1nsc2ccc(-n3c(=O)cc(C(F)(F)F)n(C)c3=O)cc12 [Compound 4] , please.
## Output 9.0

## Input Recorded Postemergence herbicidal rating, CHEAL of C#CCOC(=O)COc1ccsc1-c1nsc2ccc(-n3c(=O)cc(C(F)(F)F)n(C)c3=O)cc12 [Compound 39] , please.
## Output 4.0

## Input Recorded Postemergence herbicidal rating, CHEAL of CC1CCOC(c2nsc3ccc(-n4c(=O)cc(C(F)(F)F)n(C)c4=O)cc23)O1 (stereo not drawn) [Compound 37] , please.
## Output 9.0

## Input Recorded Postemergence herbicidal rating, CHEAL of C[C@@H]1O[C@@H]1c1nsc2ccc(-n3c(=O)cc(C(F)(F)F)n(C)c3=O)cc12 [Compound 13] , please.
## Output 6.0

## Input Recorded Postemergence herbicidal rating, CHEAL of Cn1c(C(F)(F)F)cc(=O)n(-c2ccc3snc(-c4cccs4)c3c2)c1=O [Compound 3] , please.
## Output 9.0

Shifting focus to the compound that follows.
## Input Recorded Postemergence herbicidal rating, CHEAL of Cn1c(C(F)(F)F)cc(=O)n(-c2ccc3snc(C(SCCO)SCCO)c3c2)c1=O [Compound 33] , please.
## Output 7.0

###

# Tested on: ORYSAT (Rice, Tebonnet)
# TEST: Flooded paddy, post-transplant rice tolerance
# Type: in vivo, Oryza sativa, (L.) Tebonnet
# STATED CONDITIONS: flooded paddy, post-transplant rice; rate 0.0080 kg/ha; rated 3-4 weeks after treatment; 0-9 rating scale
// reported herbicidal rating, ORYSAT (rice tolerance) per item
Reply with the value as a number alone.

## Input Request - read-out herbicidal rating, ORYSAT (rice tolerance) | tested on ORYSAT (Rice, Tebonnet) | compound Cn1c(C(F)(F)F)cc(=O)n(-c2ccc3snc(-c4sccc4CBr)c3c2)c1=O [Compound 80]
## Output 2.5

---
## Input Request - read-out herbicidal rating, ORYSAT (rice tolerance) | tested on ORYSAT (Rice, Tebonnet) | compound Cn1c(C(F)(F)F)cc(=O)n(-c2ccc3snc(C4OCCO4)c3c2)c1=O [Compound 45]
## Output 8.5

## Input Request - read-out herbicidal rating, ORYSAT (rice tolerance) | tested on ORYSAT (Rice, Tebonnet) | compound Cn1c(C(F)(F)F)cc(=O)n(-c2ccc3snc(C4OCC(CCl)O4)c3c2)c1=O (stereo not shown) [Compound 72]
## Output 0.0

## Input Request - read-out herbicidal rating, ORYSAT (rice tolerance) | tested on ORYSAT (Rice, Tebonnet) | compound Cn1c(C(F)(F)F)cc(=O)n(-c2ccc3snc(C4(C)OCCO4)c3c2)c1=O [Compound 54]
## Output 7.0

###

# Test system: CYPIR (Cyperus iria)
# TEST: Flooded paddy, preemergence weed control
# Format: in vivo
# STATED CONDITIONS: rate 0.1250 kg/ha, rated 3-4 weeks after treatment, 0-9 rating scale
QUANTITY KIND: herbicidal rating, CYPIR
Reply with the value as a number alone.

## Input Recorded herbicidal rating, CYPIR of CN(C(=O)c1nsc2ccc(-n3c(=O)cc(C(F)(F)F)n(C)c3=O)cc12)c1ccc(Cl)cc1 [Compound 18] , please.
## Output 7.5

---
## Input Recorded herbicidal rating, CYPIR of Cc1cc(C)nc(-c2nsc3ccc(-n4c(=O)cc(C(F)(F)F)n(C)c4=O)cc23)n1 [Compound 40] , please.
## Output 6.0

## Input Recorded herbicidal rating, CYPIR of C[C@@H]1C[C@H](C)OC(c2nsc3cc(F)c(-n4c(=O)cc(C(F)(F)F)n(C)c4=O)cc23)O1 (stereo partly shown) [Compound 67] , please.
## Output 9.0

## Input Recorded herbicidal rating, CYPIR of Cc1csc(-c2nsc3ccc(-n4c(=O)cc(C(F)(F)F)n(C)c4=O)cc23)n1 [Compound 7] , please.
## Output 9.0

###

# Test system: AMBEL (Ambrosia artemisifolia)
# TEST: Preemergence herbicidal evaluation
# Type: in vivo, L.
# STATED CONDITIONS: preemergence, rate 0.1250 kg/ha, rated 4-5 weeks after treatment
QUANTITY KIND: Preemergence herbicidal rating AMBEL
Reply with the value as a number alone.

Some molecules with known Preemergence herbicidal rating AMBEL results, for comparison:
## Input Request - read-out Preemergence herbicidal rating AMBEL | tested on AMBEL (Ambrosia artemisifolia) | molecule Cn1c(C(F)(F)F)cc(=O)n(-c2ccc3snc(C4OCC(C[S+](C)[O-])O4)c3c2)c1=O (stereo not shown)
## Output 9.0

## Input Request - read-out Preemergence herbicidal rating AMBEL | tested on AMBEL (Ambrosia artemisifolia) | molecule Cn1c(C(F)(F)F)cc(=O)n(-c2ccc3snc(-c4ccoc4)c3c2)c1=O
## Output 7.5

## Input Request - read-out Preemergence herbicidal rating AMBEL | tested on AMBEL (Ambrosia artemisifolia) | molecule CSCC1COC(c2nsc3ccc(-n4c(=O)cc(C(F)(F)F)n(C)c4=O)cc23)O1 (stereo not shown)
## Output 9.0

---
## Input Request - read-out Preemergence herbicidal rating AMBEL | tested on AMBEL (Ambrosia artemisifolia) | molecule COC1(c2nsc3ccc(-n4c(=O)cc(C(F)(F)F)n(C)c4=O)cc23)N=C(N(C)C)NC1=O (stereo not shown)
## Output 7.0

###

// reported Postemergence herbicidal rating, CASOB per item
# System: CASOB (Cassia obtusifolia)
# TEST: Postemergence herbicidal evaluation
# Assay type: in vivo, L.
# STATED CONDITIONS: rate 0.0620 kg/ha
# Protocol: In the tests, seedling plants are grown in jiffy flats for about two weeks. […] After spraying, the plants are placed on greenhouse benches and are cared for in accordance with conventional greenhouse procedures. From four to five weeks after treatment, the seedling plants are examined and rated according to the rating system set forth below. Where more than one test is involved for a given compound, the data are averaged. Results of herbicide evaluation are expressed on a rating scale (0-9). […]
Reply with the value as a number alone.

## Input Recorded Postemergence herbicidal rating, CASOB of COC(=O)C(C)Oc1ccsc1-c1nsc2ccc(-n3c(=O)cc(C(F)(F)F)n(C)c3=O)cc12 (centres unmarked) , please.
## Output 0.0

## Input Recorded Postemergence herbicidal rating, CASOB of Cn1c(C(F)(F)F)cc(=O)n(-c2ccc3snc(C4OCCO4)c3c2)c1=O , please.
## Output 9.0

## Input Recorded Postemergence herbicidal rating, CASOB of Cn1c(C(F)(F)F)cc(=O)n(-c2ccc3snc(C4SCCS4)c3c2)c1=O , please.
## Output 9.0

## Input Recorded Postemergence herbicidal rating, CASOB of Cn1c(C(F)(F)F)cc(=O)n(-c2ccc3snc(C4OCCS4)c3c2)c1=O (centres unmarked) , please.
## Output 8.0

## Input Recorded Postemergence herbicidal rating, CASOB of Cc1cccnc1-c1nsc2cc(F)c(N3C(=O)C4=C(CCCC4)C3=O)cc12 , please.
## Output 9.0

## Input Recorded Postemergence herbicidal rating, CASOB of Cn1ccnc1-c1nsc2ccc(-n3c(=O)cc(C(F)(F)F)n(C)c3=O)cc12 , please.
## Output 2.0

## Input Recorded Postemergence herbicidal rating, CASOB of Cn1c(C(F)(F)F)cc(=O)n(-c2ccc3snc(C4OCCCS4)c3c2)c1=O (centres unmarked) , please.
## Output 9.0

## Input Recorded Postemergence herbicidal rating, CASOB of COC(=O)COc1ccsc1-c1nsc2ccc(-n3c(=O)cc(C(F)(F)F)n(C)c3=O)cc12 , please.
## Output 0.0
